# tgt: OR52A5 (Homo sapiens) (UniProt Q9H2C5)
# Sequence (Q9H2C5 whole entry): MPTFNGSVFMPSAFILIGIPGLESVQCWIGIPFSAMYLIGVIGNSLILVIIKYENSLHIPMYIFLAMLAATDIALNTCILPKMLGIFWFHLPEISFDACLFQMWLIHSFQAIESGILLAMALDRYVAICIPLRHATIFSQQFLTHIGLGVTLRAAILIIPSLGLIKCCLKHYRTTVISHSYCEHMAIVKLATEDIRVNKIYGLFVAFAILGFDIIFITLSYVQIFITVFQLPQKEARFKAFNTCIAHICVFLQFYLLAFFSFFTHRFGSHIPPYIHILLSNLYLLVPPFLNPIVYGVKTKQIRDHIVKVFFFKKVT
# experimental-conditions: stereoisomer not certain
Classes used: 1.0 = active, 0.0 = inactive

# molecule, tgt, label-class
data = [
    ("CCCCC(S)C(C)CO (stereo not given)", "OR52A5 (Homo sapiens) (UniProt Q9H2C5)", 1.0),
    ("CC1=NC(C)C(C)S1 (stereo not given)", "OR52A5 (Homo sapiens) (UniProt Q9H2C5)", 0.0),
    ("CC1=C(O)C(=O)C(C)O1 (stereo not given)", "OR52A5 (Homo sapiens) (UniProt Q9H2C5)", 0.0),
    ("CCCCCC1CCCC(=O)O1 (stereo not given)", "OR52A5 (Homo sapiens) (UniProt Q9H2C5)", 0.0),
    ("CCCC(S)CCOC(C)=O (stereo not given)", "OR52A5 (Homo sapiens) (UniProt Q9H2C5)", 0.0),
    ("CCCCCCC=CCCC=O", "OR52A5 (Homo sapiens) (UniProt Q9H2C5)", 0.0),
    ("CCC1OC(=O)C(O)=C1C (stereo not given)", "OR52A5 (Homo sapiens) (UniProt Q9H2C5)", 0.0),
    ("CCCCCC(=O)C(C)C(C)=O (stereo not given)", "OR52A5 (Homo sapiens) (UniProt Q9H2C5)", 0.0),
    ("CC(=O)c1c(C)c([N+](=O)[O-])c(C(C)(C)C)c([N+](=O)[O-])c1C", "OR52A5 (Homo sapiens) (UniProt Q9H2C5)", 0.0),
    ("CC1=C(O)C(=O)OC1C (stereo not given)", "OR52A5 (Homo sapiens) (UniProt Q9H2C5)", 0.0),
]

====

# tgt: UniProt L7N210
# Sequence (whole entry): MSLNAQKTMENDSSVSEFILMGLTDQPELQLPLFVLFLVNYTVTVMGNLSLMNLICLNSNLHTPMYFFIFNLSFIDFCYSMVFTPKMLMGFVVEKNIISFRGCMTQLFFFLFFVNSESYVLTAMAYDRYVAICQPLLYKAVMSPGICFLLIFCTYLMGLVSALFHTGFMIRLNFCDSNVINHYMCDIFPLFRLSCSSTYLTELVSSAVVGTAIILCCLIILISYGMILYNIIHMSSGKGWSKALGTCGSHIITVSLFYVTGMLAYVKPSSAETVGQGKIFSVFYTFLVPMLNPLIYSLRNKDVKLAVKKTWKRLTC
# experimental-conditions: stereoisomer not certain
Outcomes: active, inactive

# compound, label-class
rows = [
    ("O=C(OCc1ccccc1)c1ccccc1O", "inactive"),
    ("CC(=O)C1(C)CC2=C(CCCC2(C)C)CC1C (centres undefined)", "inactive"),
    ("C=C(C)C1CC=C(C)CC1 (centres undefined)", "inactive"),
    ("COc1cnccn1", "inactive"),
    ("CNc1ccccc1C(=O)OC", "active"),
    ("CCCCCCO", "inactive"),
    ("Cc1occc1SSc1ccoc1C", "inactive"),
    ("C=CCOC(=O)CCCCCC", "inactive"),
    ("CCCCCO", "inactive"),
]

====

# tgt: OR2W3 (Homo sapiens)
# experimental-conditions: stereoisomer not certain

# compound, odorant receptor agonist call
rows = [
    ("CCC(S)C(C)CO (configuration not stated)", "inactive"),
    ("CCCCCCCCCC(=O)OCC", "inactive"),
    ("CCCCCC(S)C(C)CO (configuration not stated)", "inactive"),
    ("C=C(C)C1CC=C(C)CC1 (configuration not stated)", "inactive"),
    ("CCCCCCC=CCCC=O", "inactive"),
    ("CC1=NC(C)C(C)S1 (configuration not stated)", "inactive"),
    ("C=C1CCC2CC1C2(C)C (configuration not stated)", "inactive"),
]

====

# tgt: OR11H12 (Homo sapiens)
# Sequence (whole entry): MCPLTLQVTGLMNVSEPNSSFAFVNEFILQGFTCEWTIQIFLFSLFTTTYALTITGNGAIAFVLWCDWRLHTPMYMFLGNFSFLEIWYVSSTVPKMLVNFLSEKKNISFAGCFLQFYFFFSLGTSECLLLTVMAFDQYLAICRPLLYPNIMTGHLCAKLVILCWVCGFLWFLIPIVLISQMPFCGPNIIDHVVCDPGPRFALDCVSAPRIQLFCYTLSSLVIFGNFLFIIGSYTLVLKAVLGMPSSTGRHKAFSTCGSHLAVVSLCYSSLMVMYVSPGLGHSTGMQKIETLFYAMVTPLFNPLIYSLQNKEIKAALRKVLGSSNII
# experimental-conditions: stereoisomer not certain
Labels: active, inactive

# molecule, label-class
data = [
    ("O=c1ccc2ccccc2o1", "active"),
    ("CC1=C(O)C(=O)C(C)O1 (stereo not given)", "inactive"),
    ("Cc1cnc(C)c(C)n1", "inactive"),
    ("CC(=O)c1c(C)c([N+](=O)[O-])c(C(C)(C)C)c([N+](=O)[O-])c1C", "inactive"),
    ("CC1=NC(C)C(C)S1 (stereo not given)", "inactive"),
]

====

# tgt: OR2T4 (Homo sapiens) (UniProt Q8NH00)
# Sequence (whole entry): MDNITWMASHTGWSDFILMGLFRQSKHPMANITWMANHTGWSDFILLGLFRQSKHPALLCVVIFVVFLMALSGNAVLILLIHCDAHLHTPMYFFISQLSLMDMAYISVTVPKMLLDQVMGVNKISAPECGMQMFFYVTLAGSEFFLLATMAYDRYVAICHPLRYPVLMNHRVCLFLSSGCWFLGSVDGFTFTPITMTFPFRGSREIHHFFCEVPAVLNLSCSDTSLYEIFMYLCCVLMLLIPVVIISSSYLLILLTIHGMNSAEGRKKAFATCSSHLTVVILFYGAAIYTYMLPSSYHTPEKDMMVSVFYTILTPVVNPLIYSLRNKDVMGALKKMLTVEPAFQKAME
# experimental-conditions: stereoisomer not certain
Outcomes: active, inactive

# molecule, label-class
records = [
    ("CC(C=O)Cc1ccc(C(C)(C)C)cc1 (stereo unspecified)", "active"),
    ("Cc1cnc(C)cn1", "inactive"),
    ("CCCCCCCC(=O)OC", "inactive"),
    ("CCC1OC(=O)C(O)=C1C (stereo unspecified)", "inactive"),
    ("CCCCCCC=CCCC=O", "inactive"),
    ("CC(=O)c1c(C)c([N+](=O)[O-])c(C(C)(C)C)c([N+](=O)[O-])c1C", "inactive"),
    ("CCCCCCCCCCCCCCCC(=O)OC", "inactive"),
    ("CC(CC=O)c1ccccc1 (stereo unspecified)", "inactive"),
    ("CCCCC(=O)C(C)=O", "inactive"),
    ("CCCCCCCCCCCCCC(=O)OC", "inactive"),
    ("CCC(=O)O", "inactive"),
    ("CCCCCCCCCCCCCCCCCC(=O)OC", "inactive"),
    ("Cc1cnc(C)c(C)n1", "inactive"),
    ("CC1=C(O)C(=O)C(C)O1 (stereo unspecified)", "inactive"),
    ("CCC1OC(C)=C(O)C1=O (stereo unspecified)", "inactive"),
    ("CCCCCCCCCCCCCCCCCC(=O)OCC", "inactive"),
    ("CCCO", "inactive"),
    ("C=C(C)C1CC=C(C)CC1 (stereo unspecified)", "inactive"),
    ("CC(CO)CS (stereo unspecified)", "inactive"),
    ("CCCC(S)CCOC(C)=O (stereo unspecified)", "inactive"),
    ("CCCCCCCCCCCCCC(=O)OCC", "inactive"),
]

====

# tgt: OR4D11 (Homo sapiens)
# experimental-conditions: stereoisomer not certain

# compound, odorant receptor agonist call
data = [
    ("CC1CCCCCCCCCCCCC(=O)C1 (stereo unspecified)", "inactive"),
    ("Cc1cnc(C)c(C)n1", "inactive"),
    ("CC(CO)CS (stereo unspecified)", "inactive"),
    ("CCC(S)C(C)CO (stereo unspecified)", "inactive"),
    ("CCCCC(S)C(C)CO (stereo unspecified)", "inactive"),
    ("CC(=O)c1c(C)c([N+](=O)[O-])c(C(C)(C)C)c([N+](=O)[O-])c1C", "inactive"),
    ("CC1=C(O)C(=O)C(C)O1 (stereo unspecified)", "inactive"),
    ("CCCCCCC=CCCC=O", "inactive"),
    ("CC1=C(O)C(=O)OC1C (stereo unspecified)", "inactive"),
    ("CCCC(S)CCOC(C)=O (stereo unspecified)", "inactive"),
    ("CCCCCC(=O)C(C)C(C)=O (stereo unspecified)", "inactive"),
]

====

# tgt: UniProt Q99NH4
# Sequence (whole entry): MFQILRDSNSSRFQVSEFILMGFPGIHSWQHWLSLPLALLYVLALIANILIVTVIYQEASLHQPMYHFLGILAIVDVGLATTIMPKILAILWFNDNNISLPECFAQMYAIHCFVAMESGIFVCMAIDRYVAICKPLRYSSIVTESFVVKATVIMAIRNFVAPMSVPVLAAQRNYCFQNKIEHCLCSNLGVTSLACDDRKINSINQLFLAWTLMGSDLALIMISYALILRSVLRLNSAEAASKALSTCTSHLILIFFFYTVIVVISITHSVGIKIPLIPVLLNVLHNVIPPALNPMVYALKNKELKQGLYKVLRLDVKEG
# experimental-conditions: stereoisomer not certain

# smi, odorant receptor agonist call
data = [
    ("CCCCCCCCCCC(=O)O", "inactive"),
    ("O=C(O)CCCCCCCCCC(=O)O", "inactive"),
    ("O=C([O-])CCCCCCC(=O)[O-].[H+].[H+]", "inactive"),
    ("O=C([O-])CCCCCCCC(=O)[O-].[H+].[H+]", "inactive"),
    ("CCCCCCCCCC(=O)[O-].[H+]", "inactive"),
    ("O=C(O)CCCCCBr", "inactive"),
    ("O=C(O)CCCCCC(=O)O", "inactive"),
    ("O=C(O)CCCCCCCCCBr", "inactive"),
    ("CCCCCCO", "inactive"),
]
